B1: library; a variant is named by its letters at N, in order (parent)
chain: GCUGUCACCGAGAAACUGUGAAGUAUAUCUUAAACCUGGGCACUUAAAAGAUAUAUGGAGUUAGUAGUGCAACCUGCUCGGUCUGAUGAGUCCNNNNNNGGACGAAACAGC

# Variants of: B1
# test details: normalized RNA/DNA level with ligand (relative to sTRSVctl = 100) (log10 (% of sTRSVctl)); HEK293T; ligand: cyclic di-GMP (c-di-GMP-II aptamer); ligand concentration (+) RNA-Seq: 1 mM; higher = less ribozyme self-cleavage, higher mRNA level
# condition label: reporter: mCherry (pCS4076), ligand present: yes
readout name: normalized RNA/DNA level with ligand (log10)

{"biopolymer sequence": "GCUGUCACCGAGAAACUGUGAAGUAUAUCUUAAACCUGGGCACUUAAAAGAUAUAUGGAGUUAGUAGUGCAACCUGCUCGGUCUGAUGAGUCCGCCGCUGGACGAAACAGC [GCCGCU]", "assay value": 1.92}
{"biopolymer sequence": "GCUGUCACCGAGAAACUGUGAAGUAUAUCUUAAACCUGGGCACUUAAAAGAUAUAUGGAGUUAGUAGUGCAACCUGCUCGGUCUGAUGAGUCCCUCCGGGGACGAAACAGC [CUCCGG]", "assay value": 1.87}
{"biopolymer sequence": "GCUGUCACCGAGAAACUGUGAAGUAUAUCUUAAACCUGGGCACUUAAAAGAUAUAUGGAGUUAGUAGUGCAACCUGCUCGGUCUGAUGAGUCCGCUUGAGGACGAAACAGC [GCUUGA]", "assay value": 1.76}
{"biopolymer sequence": "GCUGUCACCGAGAAACUGUGAAGUAUAUCUUAAACCUGGGCACUUAAAAGAUAUAUGGAGUUAGUAGUGCAACCUGCUCGGUCUGAUGAGUCCUACACGGGACGAAACAGC [UACACG]", "assay value": 1.86}
{"biopolymer sequence": "GCUGUCACCGAGAAACUGUGAAGUAUAUCUUAAACCUGGGCACUUAAAAGAUAUAUGGAGUUAGUAGUGCAACCUGCUCGGUCUGAUGAGUCCUAUCCCGGACGAAACAGC [UAUCCC]", "assay value": 1.9}
{"biopolymer sequence": "GCUGUCACCGAGAAACUGUGAAGUAUAUCUUAAACCUGGGCACUUAAAAGAUAUAUGGAGUUAGUAGUGCAACCUGCUCGGUCUGAUGAGUCCGUGCCGGGACGAAACAGC [GUGCCG]", "assay value": 1.92}
{"biopolymer sequence": "GCUGUCACCGAGAAACUGUGAAGUAUAUCUUAAACCUGGGCACUUAAAAGAUAUAUGGAGUUAGUAGUGCAACCUGCUCGGUCUGAUGAGUCCAUGCACGGACGAAACAGC [AUGCAC]", "assay value": 1.86}
{"biopolymer sequence": "GCUGUCACCGAGAAACUGUGAAGUAUAUCUUAAACCUGGGCACUUAAAAGAUAUAUGGAGUUAGUAGUGCAACCUGCUCGGUCUGAUGAGUCCGCCGGCGGACGAAACAGC [GCCGGC]", "assay value": 1.74}
{"biopolymer sequence": "GCUGUCACCGAGAAACUGUGAAGUAUAUCUUAAACCUGGGCACUUAAAAGAUAUAUGGAGUUAGUAGUGCAACCUGCUCGGUCUGAUGAGUCCACUGGGGGACGAAACAGC [ACUGGG]", "assay value": 1.69}
{"biopolymer sequence": "GCUGUCACCGAGAAACUGUGAAGUAUAUCUUAAACCUGGGCACUUAAAAGAUAUAUGGAGUUAGUAGUGCAACCUGCUCGGUCUGAUGAGUCCCGCCAUGGACGAAACAGC [CGCCAU]", "assay value": 1.69}
{"biopolymer sequence": "GCUGUCACCGAGAAACUGUGAAGUAUAUCUUAAACCUGGGCACUUAAAAGAUAUAUGGAGUUAGUAGUGCAACCUGCUCGGUCUGAUGAGUCCACUGCGGGACGAAACAGC [ACUGCG]", "assay value": 1.83}
